Target: Smo (Mus musculus, UniProt P56726)
Construct: endogenous in cells; host or cells: NIH-3T3 cells stably carrying the Gli reporter plasmid
Sequence (P56726 33-793): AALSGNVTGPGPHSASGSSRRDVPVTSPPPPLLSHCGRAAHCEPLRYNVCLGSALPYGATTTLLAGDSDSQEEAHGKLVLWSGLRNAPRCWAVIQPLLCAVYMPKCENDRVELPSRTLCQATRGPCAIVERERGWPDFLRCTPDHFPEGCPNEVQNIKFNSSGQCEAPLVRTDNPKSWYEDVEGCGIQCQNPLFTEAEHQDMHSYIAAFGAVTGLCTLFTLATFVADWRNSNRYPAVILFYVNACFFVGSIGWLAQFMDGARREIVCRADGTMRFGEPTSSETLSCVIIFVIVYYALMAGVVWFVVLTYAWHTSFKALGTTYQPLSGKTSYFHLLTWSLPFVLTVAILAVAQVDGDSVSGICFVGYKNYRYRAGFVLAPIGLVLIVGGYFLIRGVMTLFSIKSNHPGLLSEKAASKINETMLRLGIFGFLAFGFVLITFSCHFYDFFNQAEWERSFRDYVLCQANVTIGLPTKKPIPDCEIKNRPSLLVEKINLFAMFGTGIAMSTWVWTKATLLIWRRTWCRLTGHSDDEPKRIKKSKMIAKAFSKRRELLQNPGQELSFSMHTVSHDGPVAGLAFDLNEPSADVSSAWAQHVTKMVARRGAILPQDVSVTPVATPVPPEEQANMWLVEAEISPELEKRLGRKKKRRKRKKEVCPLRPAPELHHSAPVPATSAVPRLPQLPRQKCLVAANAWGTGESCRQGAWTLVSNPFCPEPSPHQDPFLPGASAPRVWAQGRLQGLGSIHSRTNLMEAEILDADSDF
Experiment: Gli reporter luciferase assay in NIH-3T3/Gli reporter cells stimulated with mouse Shh-N end fragment
Assay type: cell-based
Conditions: NIH3T3; 1 μM compound; NIH-3T3/Gli reporter cells with mouse Shh-N culture supernatant, 48 hr; luciferase activity, control without compound as 100; read-out: inhibitory rate (%) at 1 μM
Below: a set of entries, each annotated with reported inhibition at 1 µM.
Please respond with the number in % and leave the unit unwritten.

Reference set (3 entries):
# compound, scale unit, inhibition at 1 µM
measured = [
    ("CCc1nc2c(c(OCC(F)(F)F)c(C(=O)NC3CCN(C(=O)CO)CC3)n2C)c(=O)n1Cc1cccc(Cl)c1 [Example 17]", "%", 98),
    ("Cc1nc2c(c(OCC(F)(F)F)c(C(=O)NC3CCN(C(=O)CO)CC3)n2C)c(=O)n1Cc1cccc(Cl)c1 [Example 10]", "%", 98),
    ("Cc1nc2c(c(OCC(F)(F)F)c(C(=O)NC3CCN(C(=O)CO)CC3)n2C)c(=O)n1Cc1ccc(Cl)cc1 [Example 9]", "%", 95),
]

Note: attention shifts to another entry.
QUERY: Query: inhibition at 1 µM; subject: CCc1nc2c(c(OCC(F)(F)F)c(C(=O)NC3CCOCC3)n2C)c(=O)n1CC(=O)c1ccccc1 [Example 16]
RESULT: 97
